Molecular target: Mot3 (UniProt P54785)
Sequence: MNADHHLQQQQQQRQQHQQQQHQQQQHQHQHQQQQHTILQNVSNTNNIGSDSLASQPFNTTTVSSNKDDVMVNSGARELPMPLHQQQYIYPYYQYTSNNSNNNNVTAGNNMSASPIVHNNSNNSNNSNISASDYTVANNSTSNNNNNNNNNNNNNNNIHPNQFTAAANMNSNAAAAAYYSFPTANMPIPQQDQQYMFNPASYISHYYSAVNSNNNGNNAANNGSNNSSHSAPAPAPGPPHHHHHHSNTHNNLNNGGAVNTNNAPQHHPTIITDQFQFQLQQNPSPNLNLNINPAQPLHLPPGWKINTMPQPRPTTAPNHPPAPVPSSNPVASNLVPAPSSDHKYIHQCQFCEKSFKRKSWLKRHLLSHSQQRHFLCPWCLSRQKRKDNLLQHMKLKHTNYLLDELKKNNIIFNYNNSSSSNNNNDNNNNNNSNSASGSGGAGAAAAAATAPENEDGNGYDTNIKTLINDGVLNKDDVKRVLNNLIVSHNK
Assay: PBM E-score (8-mer binding enrichment) (E-score (-0.5 to 0.5)); higher = stronger / more preferred TF binding
Settings: protein concentration: 200 nM; construct: GST-full length
Over roughly 33,000 sequences, “E-score (-0.5 to 0.5)” has its median near -0.035; the highest 2% begin near 0.34. This is one part of a sample in which the highest values are shown more often than they occur.
Quantity: PBM E-score
// no unit, no text: just the number

Entry ACAGGCTC : reported PBM E-score = ? 0.404

Another: CTCTAGCA -0.0349

Another: CAGGAGGG -0.159

Another: AGTTCAGC -0.141

Another: ACAGGCTG 0.0165

Another: CTGCTGAC 0.0167

Another: AACCGTAG -0.229

Another: CACAGGGG 0.118

Another: ACGTGCTC 0.0193

Another: CGGTGTAC 0.0428

Another: ACAGGCTA 0.183

Another: GAAAGGAC -0.118

Another: AAGTTCCT 0.341

Another: TAGAGGCA 0.389

Another: ACGTTCCG -0.144

Another: CAGAGGCA 0.299

Another: AAGAGGCT -0.222

Another: GAGGGACC -0.298

Another: AGAGACGA -0.246

Another: CCGAGGCA 0.308

Another: ATGCAGGC 0.342

Another: ATGCAGGG -0.153

Another: TAGAGGGA -0.0707

Another: ACGTTCCT 0.447

Another: AAGTTCCC -0.309

Another: AGTAGGCG 0.0255

Another: ATCCATCA -0.0789

Another: TATGCGAA -0.0122

Reference source for all entries: the supplement of paper PMC3334620
